B1: Chromodomain-helicase-DNA-binding protein 4, residues 365 to 417; numbered along this chain, Q14839 (parent)
chain: YETDHQDYCEVCQQGGEIILCDTCPRAYHMVCLDPDMEKAPEGKWSCPHCEKE

# Variants of: B1
# experiment.notes: abundance fitness (aPCA) (normalised: wild type 0, dead -1); higher = more abundant; growth selection in yeast, the domain comes from the species named
# condition.description: Homo sapiens
Rule: abundance fitness under -0.1 gives not satisfied, otherwise satisfied.

mutation.name | classification
H49V | not satisfied
C12F | not satisfied
E10P | not satisfied
T23L | not satisfied
L20E | satisfied
L20T | satisfied
I19W | not satisfied
D7S | satisfied
W45Q | satisfied
S46G | not satisfied
Y8R | satisfied
E53W | satisfied
C50K | not satisfied
A40F | satisfied
C12E | not satisfied
E2C | satisfied
C12G | not satisfied
E51F | not satisfied
H29E | not satisfied
W45G | satisfied
V11F | satisfied
C24T | not satisfied
P41M | satisfied
Y8M | satisfied
R26S | not satisfied
H29I | not satisfied
E10W | satisfied
E53D | not satisfied
L20W | not satisfied
D34P | not satisfied
Y8E | not satisfied
D7M | satisfied
P25T | not satisfied
C47Y | not satisfied
A40W | not satisfied
C24A | not satisfied
G15L | satisfied
Y28T | not satisfied
L33C | satisfied
W45T | satisfied
Y28F | satisfied
C50E | not satisfied
T3S | satisfied
D22H | not satisfied
H5I | satisfied
T3E | satisfied
D22Q | satisfied
P25Q | satisfied
E53N | not satisfied
C21S | not satisfied
D36K | satisfied
H5A | satisfied
C21D | not satisfied
P25K | not satisfied
C21I | not satisfied
Y28R | not satisfied
V11L | satisfied
S46K | not satisfied
Q6P | not satisfied
G43K | satisfied
I19D | not satisfied
E2S | satisfied
Q13D | satisfied
D36G | satisfied
E53C | not satisfied
P25C | satisfied
M30E | satisfied
R26L | not satisfied
P35G | satisfied
V31H | satisfied
R26I | satisfied
G43V | not satisfied
P25M | not satisfied
Q14L | not satisfied
L20D | satisfied
G43W | not satisfied
K52D | not satisfied
I18P | not satisfied
L20M | satisfied
W45P | not satisfied
C32T | not satisfied
E51M | satisfied
P35H | satisfied

# credit: the Human Domainome abundance scans (Beltran et al. 2025)
